These measurements were taken from the supplement of paper PMC11208160.

Test: recombinant barcode read abundance after kanamycin selection (control-corrected) (log10(CPM+1)); higher = more efficient recombination; sequences stand for … in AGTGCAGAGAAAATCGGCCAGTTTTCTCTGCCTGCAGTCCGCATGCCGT…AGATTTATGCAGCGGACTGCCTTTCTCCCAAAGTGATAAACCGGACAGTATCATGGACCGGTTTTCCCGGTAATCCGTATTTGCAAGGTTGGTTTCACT; site = the 11-nt target;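 note: IS621 recombinase and bridge RNA in Escherichia coli cells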
Below is a list of entries, each paired with its recorded recombinant barcode read abundance (log10) value.
Enter a number only.

Examples with their reported recombinant barcode read abundance (log10) follow.
ordered.residues	value.reported
TCGCACTCTTGGGTTCTAACCTGTTGCTA (site TCGCACTCTTA)	0.911
CTACCTCCTTGGGTTCTAACCTGTTGCGT (site CTACTTCCTAC)	0.37
TTCACAGCTTGGGTTCTAACCTGTTGCCT (site TTCACAGCTAG)	0.133
CTTAGGACTTGGGTTCTAACCTGTTGCCC (site CTTAGGACTCG)	0.283
CTACTAGCTTGGGTTCTAACCTGTTGCAA (site CTACTAGCTCT)	0.617

Turning to the following sequence.
Query block: Consider the sequence shown here: AAGTGCTCTTGGGTTCTAACCTGTTGCCG (site AAGTGCTCTCG) What is its recorded recombinant barcode read abundance (log10)?
Result block: 1.89
